- System: MIA PaCa-2 (human pancreatic cancer)
- test: cells
- Type: cell-based
- condition description: Table 4; MIA PaCa-2 human pancreatic cancer cells; read-out: IC50 (nM) MIA PaCa-2
The entries below are paired with their reported IC50.
outcome measure: IC50 (nM)

CC[C@@H](C(=O)[C@@H](C)[C@@H](O)[C@H](C)[C@@H]1O[C@@H]([C@@H](CC)C(=O)O)CC[C@@H]1C)[C@H]1O[C@]2(C=C[C@@H](NC(=O)c3ccccc3Cl)[C@]3(CC[C@@](C)([C@H]4CC[C@](O)(CC)[C@H](C)O4)O3)O2)[C@H](C)C[C@@H]1C 52
CC[C@@H](C(=O)[C@@H](C)[C@@H](O)[C@H](C)[C@@H]1O[C@@H]([C@@H](CC)C(=O)O)CC[C@@H]1C)[C@H]1O[C@]2(C=C[C@@H](NC(=O)Oc3ccccc3)[C@]3(CC[C@@](C)([C@H]4CC[C@](O)(CC)[C@H](C)O4)O3)O2)[C@H](C)C[C@@H]1C 39.8
CC[C@@H](C(=O)[C@@H](C)[C@@H](O)[C@H](C)[C@@H]1O[C@@H]([C@@H](CC)C(=O)O)CC[C@@H]1C)[C@H]1O[C@]2(C=C[C@@H](NC(=O)Nc3cccc(C(F)(F)F)c3)[C@]3(CC[C@@](C)([C@H]4CC[C@](O)(CC)[C@H](C)O4)O3)O2)[C@H](C)C[C@@H]1C 5.93

###

- Test system: PFSK-1 (malignant primitive neuroectodermal tumour)
- test: In vitro cytotoxicity, SRB assay, PFSK-1
- Assay type: cell-based
- condition description: selectivity coefficient vs normal BALB/3T3 cells
outcome measure: PFSK-1 SI

CC[C@@H](C(=O)[C@@H](C)[C@@H](O)[C@H](C)[C@@H]1O[C@@H]([C@@H](CC)C(=O)O)CC[C@@H]1C)[C@H]1O[C@]2(C=C[C@@H](NC(=O)Nc3ccc(OC)cc3)[C@]3(CC[C@@](C)([C@H]4CC[C@](O)(CC)[C@H](C)O4)O3)O2)[C@H](C)C[C@@H]1C 18.0
CC[C@@H](C(=O)[C@@H](C)[C@@H](O)[C@H](C)[C@@H]1O[C@@H]([C@@H](CC)C(=O)O)CC[C@@H]1C)[C@H]1O[C@]2(C=C[C@@H](NC(=O)Nc3cc(C(F)(F)F)cc(C(F)(F)F)c3)[C@]3(CC[C@@](C)([C@H]4CC[C@](O)(CC)[C@H](C)O4)O3)O2)[C@H](C)C[C@@H]1C 9.5
CCCCCCCNC(=O)N[C@@H]1C=C[C@]2(O[C@H]([C@@H](CC)C(=O)[C@@H](C)[C@@H](O)[C@H](C)[C@@H]3O[C@@H]([C@@H](CC)C(=O)O)CC[C@@H]3C)[C@@H](C)C[C@H]2C)O[C@@]12CC[C@@](C)([C@H]1CC[C@](O)(CC)[C@H](C)O1)O2 14.2
CC[C@@H](C(=O)[C@@H](C)[C@@H](O)[C@H](C)[C@@H]1O[C@@H]([C@@H](CC)C(=O)O)CC[C@@H]1C)[C@H]1O[C@]2(C=C[C@@H](NC(=O)Nc3ccccc3C(F)(F)F)[C@]3(CC[C@@](C)([C@H]4CC[C@](O)(CC)[C@H](C)O4)O3)O2)[C@H](C)C[C@@H]1C 3.2
CC[C@@H](C(=O)[C@@H](C)[C@@H](O)[C@H](C)[C@@H]1O[C@@H]([C@@H](CC)C(=O)O)CC[C@@H]1C)[C@H]1O[C@]2(C=C[C@@H](NC(=S)Nc3ccc(F)cc3)[C@]3(CC[C@@](C)([C@H]4CC[C@](O)(CC)[C@H](C)O4)O3)O2)[C@H](C)C[C@@H]1C 6.2
CC[C@@H](C(=O)[C@@H](C)[C@@H](O)[C@H](C)[C@@H]1O[C@@H]([C@@H](CC)C(=O)O)CC[C@@H]1C)[C@H]1O[C@]2(C=C[C@@H](NC(=O)NC3CCC3)[C@]3(CC[C@@](C)([C@H]4CC[C@](O)(CC)[C@H](C)O4)O3)O2)[C@H](C)C[C@@H]1C 1.9
CC[C@@H](C(=O)[C@@H](C)[C@@H](O)[C@H](C)[C@@H]1O[C@@H]([C@@H](CC)C(=O)O)CC[C@@H]1C)[C@H]1O[C@]2(C=C[C@@H](NC(=O)NCc3ccc(F)cc3)[C@]3(CC[C@@](C)([C@H]4CC[C@](O)(CC)[C@H](C)O4)O3)O2)[C@H](C)C[C@@H]1C 6.7

###

- System: PFSK-1 (malignant primitive neuroectodermal tumour)
- test: In vitro cytotoxicity, SRB assay, PFSK-1
- Format: cell-based
- condition description: selectivity coefficient vs normal BALB/3T3 cells
The entries below are paired with their reported PFSK-1 SI.
outcome measure: PFSK-1 SI

CC[C@@H](C(=O)[C@@H](C)[C@@H](O)[C@H](C)[C@@H]1O[C@@H]([C@@H](CC)C(=O)O)CC[C@@H]1C)[C@H]1O[C@]2(C=C[C@@H](NC(=S)Nc3ccc(Cl)c(Cl)c3)[C@]3(CC[C@@](C)([C@H]4CC[C@](O)(CC)[C@H](C)O4)O3)O2)[C@H](C)C[C@@H]1C 14.9
CC[C@@H](C(=O)[C@@H](C)[C@@H](O)[C@H](C)[C@@H]1O[C@@H]([C@@H](CC)C(=O)O)CC[C@@H]1C)[C@H]1O[C@]2(C=C[C@@H](NC(=O)Nc3ccc(F)cc3F)[C@]3(CC[C@@](C)([C@H]4CC[C@](O)(CC)[C@H](C)O4)O3)O2)[C@H](C)C[C@@H]1C 3.8
CC[C@@H](C(=O)[C@@H](C)[C@@H](O)[C@H](C)[C@@H]1O[C@@H]([C@@H](CC)C(=O)O)CC[C@@H]1C)[C@H]1O[C@]2(C=C[C@@H](NC(=O)NC3CCCC3)[C@]3(CC[C@@](C)([C@H]4CC[C@](O)(CC)[C@H](C)O4)O3)O2)[C@H](C)C[C@@H]1C 6.2
CCCCNC(=S)N[C@@H]1C=C[C@]2(O[C@H]([C@@H](CC)C(=O)[C@@H](C)[C@@H](O)[C@H](C)[C@@H]3O[C@@H]([C@@H](CC)C(=O)O)CC[C@@H]3C)[C@@H](C)C[C@H]2C)O[C@@]12CC[C@@](C)([C@H]1CC[C@](O)(CC)[C@H](C)O1)O2 7.0

###

- Test system: A2780Cis (cisplatin-resistant human ovarian cancer)
- test: In vitro cytotoxicity, SRB assay, A2780Cis
- Format: cell-based
# label = yes (1) if SI A2780Cis >= 50 else no (0)

CC[C@@H](C(=O)[C@@H](C)[C@@H](O)[C@H](C)[C@@H]1O[C@@H]([C@@H](CC)C(=O)O)CC[C@@H]1C)[C@H]1O[C@]2(C=C[C@@H](NC(=O)OC(C(F)(F)F)C(F)(F)F)[C@]3(CC[C@@](C)([C@H]4CC[C@](O)(CC)[C@H](C)O4)O3)O2)[C@H](C)C[C@@H]1C no (0)
CC[C@@H](C(=O)[C@@H](C)[C@@H](O)[C@H](C)[C@@H]1O[C@@H]([C@@H](CC)C(=O)O)CC[C@@H]1C)[C@H]1O[C@]2(C=C[C@@H](NC(=O)NCc3cccnc3)[C@]3(CC[C@@](C)([C@H]4CC[C@](O)(CC)[C@H](C)O4)O3)O2)[C@H](C)C[C@@H]1C no (0)
CC[C@@H](C(=O)[C@@H](C)[C@@H](O)[C@H](C)[C@@H]1O[C@@H]([C@@H](CC)C(=O)O)CC[C@@H]1C)[C@H]1O[C@]2(C=C[C@@H](NC(=O)C(=O)NCc3ccccn3)[C@]3(CC[C@@](C)([C@H]4CC[C@](O)(CC)[C@H](C)O4)O3)O2)[C@H](C)C[C@@H]1C no (0)
CC[C@@H](C(=O)[C@@H](C)[C@@H](O)[C@H](C)[C@@H]1O[C@@H]([C@@H](CC)C(=O)O)CC[C@@H]1C)[C@H]1O[C@]2(C=C[C@@H](NC(=O)OCCOC)[C@]3(CC[C@@](C)([C@H]4CC[C@](O)(CC)[C@H](C)O4)O3)O2)[C@H](C)C[C@@H]1C no (0)
CC[C@@H](C(=O)[C@@H](C)[C@@H](O)[C@H](C)[C@@H]1O[C@@H]([C@@H](CC)C(=O)O)CC[C@@H]1C)[C@H]1O[C@]2(C=C[C@@H](NC(=O)OCCCCCCCl)[C@]3(CC[C@@](C)([C@H]4CC[C@](O)(CC)[C@H](C)O4)O3)O2)[C@H](C)C[C@@H]1C yes (1)
CCCCCCCCNC(=O)N[C@@H]1C=C[C@]2(O[C@H]([C@@H](CC)C(=O)[C@@H](C)[C@@H](O)[C@H](C)[C@@H]3O[C@@H]([C@@H](CC)C(=O)O)CC[C@@H]3C)[C@@H](C)C[C@H]2C)O[C@@]12CC[C@@](C)([C@H]1CC[C@](O)(CC)[C@H](C)O1)O2 yes (1)
CC[C@@H](C(=O)[C@@H](C)[C@@H](O)[C@H](C)[C@@H]1O[C@@H]([C@@H](CC)C(=O)O)CC[C@@H]1C)[C@H]1O[C@]2(C=C[C@@H](NC(=O)C(=O)NC3CC3)[C@]3(CC[C@@](C)([C@H]4CC[C@](O)(CC)[C@H](C)O4)O3)O2)[C@H](C)C[C@@H]1C no (0)
CC[C@@H](C(=O)[C@@H](C)[C@@H](O)[C@H](C)[C@@H]1O[C@@H]([C@@H](CC)C(=O)O)CC[C@@H]1C)[C@H]1O[C@]2(C=C[C@@H](NC(=O)OCCN(C)C)[C@]3(CC[C@@](C)([C@H]4CC[C@](O)(CC)[C@H](C)O4)O3)O2)[C@H](C)C[C@@H]1C no (0)
CC[C@@H](C(=O)[C@@H](C)[C@@H](O)[C@H](C)[C@@H]1O[C@@H]([C@@H](CC)C(=O)O)CC[C@@H]1C)[C@H]1O[C@]2(C=C[C@@H](NS(=O)(=O)c3c(C)noc3C)[C@]3(CC[C@@](C)([C@H]4CC[C@](O)(CC)[C@H](C)O4)O3)O2)[C@H](C)C[C@@H]1C yes (1)
